These data points were gathered from the supplement of paper PMC4862054.

Recorded normalised response for the following compounds
system: HCC1599; assay: normalised response (% of control), CellTiter-Glo; higher = more viable cells (100 = DMSO, 0 = benzethonium chloride kill control); settings: incubation time: 72 h
Note: state the figure and append the unit.

Past entries and their recorded results:
>  <compound>
CCS(=O)(=O)c1cccc(-c2cc(C(=O)NC3CCN(C)CC3)c(C)c3[nH]c4ncc(C)cc4c23)c1 [TAK-901] (100 nM)

>  <normalised response>
109%

$$$$
>  <compound>
FC(F)c1nc2ccccc2n1-c1nc(N2CCOCC2)nc(N2CCOCC2)n1 [ZSTK474] (1000 nM)

>  <normalised response>
79.1%

$$$$
>  <compound>
CN(c1ccccc1CNc1nc(Nc2ccc3c(c2)CC(=O)N3)ncc1C(F)(F)F)S(C)(=O)=O (1 nM)

>  <normalised response>
98.4%

$$$$
>  <compound>
CCOc1cc2ncc(C#N)c(Nc3ccc(OCc4ccccn4)c(Cl)c3)c2cc1NC(=O)/C=C/CN(C)C [Neratinib] (1 nM)

>  <normalised response>
99.2%

$$$$

INPUT: Could you share what normalised response was measured for COc1cccc2c1C(=O)c1c(O)c3c(c(O)c1C2=O)C[C@@](O)(C(C)=O)C[C@@H]3O[C@H]1C[C@H](N)[C@H](O)[C@H](C)O1 [Daunorubicin] (1 nM) , tested on HCC1599?
OUTPUT: 109%

INPUT: Could you share what normalised response was measured for CCS(=O)(=O)c1cccc(-c2cc(C(=O)NC3CCN(C)CC3)c(C)c3[nH]c4ncc(C)cc4c23)c1 [TAK-901] (1 nM) , tested on HCC1599?
OUTPUT: 117%

INPUT: Could you share what normalised response was measured for COc1ccc(C2=N[C@@H](c3ccc(Cl)cc3)[C@@H](c3ccc(Cl)cc3)N2C(=O)N2CCNC(=O)C2)c(OC(C)C)c1 [Nutlin-3] (10 nM) , tested on HCC1599?
OUTPUT: 104%

###

system: MFM-223; assay: normalised response (% of control), CellTiter-Glo; higher = more viable cells (100 = DMSO, 0 = benzethonium chloride kill control); conditions: incubation time: 72 h
Recorded normalised response for the following molecules
Dear colleague, please return just the value in %, with no unit written.

Past entries and their recorded results:
>  <molecule>
CS(=O)(=O)CCNCc1ccc(-c2ccc3ncnc(Nc4ccc(OCc5cccc(F)c5)c(Cl)c4)c3c2)o1 [Lapatinib] (0.1 nM)

>  <normalised response / %>
104

$$$$
>  <molecule>
O=c1[nH]cc(F)c(=O)[nH]1 [Fluorouracil] (1000 nM)

>  <normalised response / %>
102

$$$$

INPUT: Could you share what normalised response was measured for COC(=O)C[C@](O)(CCCC(C)(C)O)C(=O)O[C@@H]1C(OC)=C[C@]23CCCN2CCc2cc4c(cc2[C@H]13)OCO4 [Omacetaxine] (1 nM) , tested on MFM-223?
OUTPUT: 103

INPUT: Could you share what normalised response was measured for O=C(c1ccc(OCCN2CCCCC2)cc1)c1c(-c2ccc(O)cc2)sc2cc(O)ccc12 [Raloxifene] (10 nM) , tested on MFM-223?
OUTPUT: 105

INPUT: Could you share what normalised response was measured for COc1cccc2c1C(=O)c1c(O)c3c(c(O)c1C2=O)C[C@@](O)(C(C)=O)C[C@@H]3O[C@H]1C[C@H](N)[C@H](O)[C@H](C)O1 [Daunorubicin] (1 nM) , tested on MFM-223?
OUTPUT: 108

INPUT: Could you share what normalised response was measured for C[C@@]1(C(=O)Nc2ccc(F)nc2)CCCN1c1nc(Nc2cc(C3CC3)n[nH]2)c2cccn2n1 (1 nM) , tested on MFM-223?
OUTPUT: 87.7
